Test system: Phakopsora pachyrhizi (F129L)
Assay: Protective control of soybean rust on soybeans (PHAKPA P6)
Type: in vivo
Settings: protective P6, 4 ppm, F129L isolate
recorded-metric: % PHAKPA (F129L) Disease level P6 at 4 ppm

Some solved entries appear below for comparison.
Prompt: What measured % PHAKPA (F129L) Disease level P6 at 4 ppm goes with CNC(=O)/C(=N/OC)c1cccc(OC)c1CO/N=C(\C)c1cccc(C(F)(F)F)c1 [compound 461] ?
Completion: 52%

Prompt: What measured % PHAKPA (F129L) Disease level P6 at 4 ppm goes with CO/N=C(/C(=O)OC)c1cccc(C)c1CO/N=C(\C)c1cc(F)c(F)cc1C(F)(F)F [compound 409] ?
Completion: 83%

Prompt: What measured % PHAKPA (F129L) Disease level P6 at 4 ppm goes with C=Cc1cccc(/C(=N\OC)C(=O)NC)c1CO/N=C(\C)c1ccccc1 [compound 400] ?
Completion: 8%

Prompt: What measured % PHAKPA (F129L) Disease level P6 at 4 ppm goes with CO/C=C(/C(=O)OC)c1cccc(C)c1CO/N=C(\C)c1c(Cl)ccc(Cl)c1OC(F)(F)F [compound 444] ?
Completion: 83%

Prompt: What measured % PHAKPA (F129L) Disease level P6 at 4 ppm goes with C#Cc1cccc(/C(C)=N/OCc2c(C)cccc2/C(=N\OC)C(=O)NC)c1F [compound 401] ?
Completion: 32%

Prompt: What measured % PHAKPA (F129L) Disease level P6 at 4 ppm goes with CO/C=C(/C(=O)OC)c1cccc(C)c1CO/N=C(\C)c1ccc(F)c(F)c1OC(F)(F)F [compound 450] ?
Completion: 4%

Prompt: What measured % PHAKPA (F129L) Disease level P6 at 4 ppm goes with CNC(=O)/C(=N/OC)c1cccc(C)c1CO/N=C(\C)c1ccc(Cl)c(F)c1CC(F)(F)F [compound 412] ?
Completion: 40%

Prompt: What measured % PHAKPA (F129L) Disease level P6 at 4 ppm goes with CO/C=C(/C(=O)OC)c1cccc(C)c1CO/N=C(\C)c1cc(F)c(F)cc1CC(F)(F)F [compound 405] ?
Completion: 70%

Continuing:
Prompt: What measured % PHAKPA (F129L) Disease level P6 at 4 ppm goes with CNC(=O)/C(=N/OC)c1cccc(C)c1CO/N=C(\C)c1cccc(Cl)c1C(F)(F)F [compound 422] ?
Completion: 32%

Prompt: What measured % PHAKPA (F129L) Disease level P6 at 4 ppm goes with CNC(=O)/C(=N/OC)c1cccc(C)c1CO/N=C(\CC(F)(F)F)c1ccccc1 [compound 380] ?
Completion: 60%

Prompt: What measured % PHAKPA (F129L) Disease level P6 at 4 ppm goes with CO/N=C(/C(=O)OC)c1cccc(C)c1CO/N=C(\C)c1cccc(Cl)c1C(F)(F)F [compound 421] ?
Completion: 87%

Prompt: What measured % PHAKPA (F129L) Disease level P6 at 4 ppm goes with CO/N=C(/C(=O)OC)c1cccc(C)c1CO/N=C(\C)c1ccc(Cc2ccccc2)cc1OC(F)(F)F [compound 416] ?
Completion: 67%

Prompt: What measured % PHAKPA (F129L) Disease level P6 at 4 ppm goes with CO/C=C(/C(=O)OC)c1cccc(C)c1CO/N=C(\C)c1ccc(C)cc1C(F)(F)F [compound 446] ?
Completion: 6%

Prompt: What measured % PHAKPA (F129L) Disease level P6 at 4 ppm goes with CNC(=O)/C(=N/OC)c1cccc(C)c1CO/N=C(\C)c1ccc(Cc2ccccc2)cc1C(F)(F)F [compound 407] ?
Completion: 17%

Prompt: What measured % PHAKPA (F129L) Disease level P6 at 4 ppm goes with CO/C=C(/C(=O)OC)c1cccc(C)c1CO/N=C(\C)c1ccccc1CC(F)(F)F [compound 437] ?
Completion: 8%

Prompt: What measured % PHAKPA (F129L) Disease level P6 at 4 ppm goes with CO/C=C(/C(=O)OC)c1cccc(C)c1CO/N=C(\C)c1ccc(Br)cc1C(F)(F)F [compound 445] ?
Completion: 30%

Prompt: What measured % PHAKPA (F129L) Disease level P6 at 4 ppm goes with CO/C=C(/C(=O)OC)c1cccc(C)c1CO/N=C(\C)c1ccc(Cl)c(F)c1OC(F)(F)F [compound 452] ?
Completion: 70%

Prompt: What measured % PHAKPA (F129L) Disease level P6 at 4 ppm goes with CO/N=C(/C(=O)OC)c1cccc(Br)c1CO/N=C(\C)c1ccccc1 [compound 395] ?
Completion: 67%
